target: JAK1 (Homo sapiens (Human)); experiment: JAK1 Inhibition Assay (Example B, Omnia kinase fluorescence peptide substrate assay); format: biochemical
Sequence (P23458 whole entry): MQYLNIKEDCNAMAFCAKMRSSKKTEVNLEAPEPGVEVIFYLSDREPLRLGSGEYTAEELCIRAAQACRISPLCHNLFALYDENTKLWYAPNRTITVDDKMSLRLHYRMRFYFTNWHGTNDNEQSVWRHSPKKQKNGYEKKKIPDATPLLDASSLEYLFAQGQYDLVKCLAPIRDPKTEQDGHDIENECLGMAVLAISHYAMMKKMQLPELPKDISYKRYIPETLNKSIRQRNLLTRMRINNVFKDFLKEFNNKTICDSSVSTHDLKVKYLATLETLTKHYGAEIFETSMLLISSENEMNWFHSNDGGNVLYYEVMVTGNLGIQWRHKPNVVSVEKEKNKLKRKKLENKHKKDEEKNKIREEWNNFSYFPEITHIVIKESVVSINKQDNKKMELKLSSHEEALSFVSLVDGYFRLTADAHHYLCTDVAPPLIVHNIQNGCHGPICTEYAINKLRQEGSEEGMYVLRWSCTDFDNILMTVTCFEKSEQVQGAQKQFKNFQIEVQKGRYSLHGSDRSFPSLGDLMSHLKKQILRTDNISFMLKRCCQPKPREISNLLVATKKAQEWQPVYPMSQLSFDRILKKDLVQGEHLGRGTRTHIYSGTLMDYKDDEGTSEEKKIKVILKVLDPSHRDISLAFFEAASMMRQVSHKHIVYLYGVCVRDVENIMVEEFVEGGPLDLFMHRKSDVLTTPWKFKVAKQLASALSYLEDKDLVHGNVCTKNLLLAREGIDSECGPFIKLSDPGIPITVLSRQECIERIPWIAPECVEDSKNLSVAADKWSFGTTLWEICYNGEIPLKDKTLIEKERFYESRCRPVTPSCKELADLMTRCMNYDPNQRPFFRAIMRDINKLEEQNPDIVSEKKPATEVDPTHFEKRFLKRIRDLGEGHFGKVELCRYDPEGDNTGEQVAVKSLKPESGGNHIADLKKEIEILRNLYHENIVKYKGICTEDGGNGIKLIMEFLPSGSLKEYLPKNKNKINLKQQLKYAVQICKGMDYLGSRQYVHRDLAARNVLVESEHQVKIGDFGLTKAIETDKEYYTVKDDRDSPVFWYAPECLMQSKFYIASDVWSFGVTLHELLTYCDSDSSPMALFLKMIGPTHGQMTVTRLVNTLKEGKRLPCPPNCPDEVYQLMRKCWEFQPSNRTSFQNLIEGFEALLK
Measure name: IC50

Recorded results for 10 compounds are shown here.
- Compound: "CCC(CC)n1cc(-c2nc(-c3cnn(CCS(=O)(=O)N(C)C)c3)cn3nccc23)cn1"
  Endpoint result: "100 to 1000 nM"
- Compound: "CCC(CC)n1cc(-c2nc(-c3cnn(C[C@@H](O)C(C)(C)O)c3)cn3nccc23)cn1"
  Endpoint result: "100 to 1000 nM"
- Compound: "CCC(CC)n1cc(-c2nc(-c3cnn([C@H]4C[C@@](C)(O)C4)c3)cn3nccc23)cn1"
  Endpoint result: "100 to 1000 nM"
- Compound: "CCC(CC)n1cc(-c2nc(-c3cnn(C[C@H](O)COC)c3)cn3nccc23)cn1"
  Endpoint result: "100 to 1000 nM"
- Compound: "CCC(CC)n1cc(-c2nc(-c3cnn(C4CN(C(=O)C(C)C)C4)c3)cn3nccc23)cn1"
  Endpoint result: "1000 to 10000 nM"
- Compound: "CCC(CC)n1cc(-c2nc(-c3cnn(CCN(C)C)c3)cn3nccc23)cn1"
  Endpoint result: "1000 to 10000 nM"
- Compound: "CC[C@H](C1CC1)n1cc(-c2nc(-c3cnn(C[C@H](C)O)c3)cn3nccc23)cn1"
  Endpoint result: "100 to 1000 nM"
- Compound: "CCC(CCO)n1cc(-c2nc(-c3cnn(C)c3)cn3nccc23)cn1 (stereo not shown)"
  Endpoint result: "1000 to 10000 nM"
- Compound: "CCC(CC)n1cc(-c2nc(-c3cnn(C4CCN(C(=O)COC)CC4)c3)cn3nccc23)cn1"
  Endpoint result: "100 to 1000 nM"
- Compound: "CCC(CC)n1cc(-c2nc(-c3cnn(CC(=O)N4CCOCC4)c3)cn3nccc23)cn1"
  Endpoint result: "10 to 100 nM"

State its IC50: CCC(CC)n1cc(-c2nc(-c3cnn([C@H](C)[C@@H](O)CO)c3)cn3nccc23)cn1 (single isomer, unassigned)
100 to 1000 nM

Give the reported value of IC50 for this record: CCC(CC)n1cc(-c2nc(-c3cnn(C[C@H]4CCC(=O)N4)c3)cn3nccc23)cn1
10 to 100 nM

Quick one: give measured IC50 for CCC(CC)n1cc(-c2nc(-c3cnn(C[C@H]4COCCN4)c3)cn3nccc23)cn1
100 to 1000 nM

---

As an illustration, consider measured IC50 for compounds on JAK2 (Homo sapiens (Human)).
Sequence (O60674 whole entry): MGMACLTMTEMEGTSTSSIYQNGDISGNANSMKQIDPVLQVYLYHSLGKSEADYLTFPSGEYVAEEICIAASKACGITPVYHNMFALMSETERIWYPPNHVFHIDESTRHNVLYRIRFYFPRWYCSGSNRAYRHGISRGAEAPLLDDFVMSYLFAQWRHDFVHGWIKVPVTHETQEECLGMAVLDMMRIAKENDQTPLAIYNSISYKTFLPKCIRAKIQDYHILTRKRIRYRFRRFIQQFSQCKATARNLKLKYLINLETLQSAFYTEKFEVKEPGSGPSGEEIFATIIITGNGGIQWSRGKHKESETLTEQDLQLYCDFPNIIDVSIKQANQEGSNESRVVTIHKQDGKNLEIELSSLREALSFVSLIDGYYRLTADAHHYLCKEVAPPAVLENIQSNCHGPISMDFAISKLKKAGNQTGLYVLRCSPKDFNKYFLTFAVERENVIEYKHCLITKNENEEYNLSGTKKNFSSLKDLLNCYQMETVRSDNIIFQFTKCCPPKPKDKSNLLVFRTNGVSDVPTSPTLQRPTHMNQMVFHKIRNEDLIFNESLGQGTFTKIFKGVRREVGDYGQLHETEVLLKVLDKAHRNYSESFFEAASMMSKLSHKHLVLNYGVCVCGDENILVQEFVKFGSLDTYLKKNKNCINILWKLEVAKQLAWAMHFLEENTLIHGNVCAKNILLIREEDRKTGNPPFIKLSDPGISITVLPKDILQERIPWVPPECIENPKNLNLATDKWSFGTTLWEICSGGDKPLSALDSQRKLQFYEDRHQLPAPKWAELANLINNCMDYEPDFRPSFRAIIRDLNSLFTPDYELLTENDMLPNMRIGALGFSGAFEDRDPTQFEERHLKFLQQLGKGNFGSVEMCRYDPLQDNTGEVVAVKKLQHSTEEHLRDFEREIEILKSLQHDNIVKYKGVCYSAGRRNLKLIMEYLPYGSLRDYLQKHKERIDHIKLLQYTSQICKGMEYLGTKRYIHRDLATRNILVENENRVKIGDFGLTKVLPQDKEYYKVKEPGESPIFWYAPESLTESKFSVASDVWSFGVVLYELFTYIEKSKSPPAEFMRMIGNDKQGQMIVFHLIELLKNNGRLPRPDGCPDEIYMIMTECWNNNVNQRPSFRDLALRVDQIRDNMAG

- Compound: "CCC(CC)n1cc(-c2nc(-c3cnn(C[C@H](C)CO)c3)cn3nccc23)cn1"
  Endpoint result: "10 to 100 nM"

Please report IC50 for the following compound: CCC(CC)n1cc(-c2nc(-c3cnn([C@H]4C[C@H](CO)C4)c3)cn3nccc23)cn1
10 to 100 nM

Identify IC50 associated with the compound CC[C@H](C)n1cc(-c2nc(-c3cnn(C[C@@H](O)CO)c3)cn3nccc23)cn1
10 to 100 nM

Look up and report measured IC50 for this entry: CCC(C)n1cc(-c2nc(-c3cnn(C[C@@H](O)CO)c3)cn3nccc23)cn1 (stereo partly shown)
10 to 100 nM

Please give the documented IC50 of CCC(CC)n1cc(-c2nc(-c3cnn([C@@H](C)[C@H](C)O)c3)cn3nccc23)cn1 (single isomer, unassigned)
10 to 100 nM

Let me know recorded IC50 for CCC(CC)n1cc(-c2nc(-c3cnn(CC(O)CN)c3)cn3nccc23)cn1 (stereo not shown) , thanks.
10 to 100 nM

Fill in IC50 for record CCC(CCO)n1cc(-c2nc(-c3cnn(C)c3)cn3nccc23)cn1 (stereo not shown)
1000 to 10000 nM

Output measured IC50 for this item: CCC(CC)n1cc(-c2nc(-c3cnn([C@@H]4CCC[C@@H]4O)c3)cn3nccc23)cn1
10 to 100 nM

Determine its reported IC50: CCC(CC)n1cc(-c2nc(-c3cnn([C@H]4CC[C@@H](O)CC4)c3)cn3nccc23)cn1
10 to 100 nM

Output measured IC50 for this item: CCC(CC)n1cc(-c2nc(-c3cnn(C[C@@H](C)O)c3)cn3nccc23)cn1
1000 to 10000 nM

Report IC50, nothing else, for this compound: CCC(CC)n1cc(-c2nc(-c3cnn(CCNC4CC(CO)C4)c3)cn3nccc23)cn1 (stereo not shown)
10 to 100 nM

Hello, please tell me recorded IC50 for this one: CCC(n1cc(-c2nc(-c3cnn(C[C@@H](O)CO)c3)cn3nccc23)cn1)C(F)(F)F (stereo partly shown)
100 to 1000 nM

Supply reported IC50 belonging to this compound: CCC(CC)n1cc(-c2nc(-c3cnn(C4CN(C(=O)N(C)C)C4)c3)cn3nccc23)cn1
10 to 100 nM

Note IC50 for the compound shown: C[C@@H]1CC[C@@H]1n1cc(-c2nc(-c3cnn(C[C@@H](O)CO)c3)cn3nccc23)cn1
100 to 1000 nM

Annotate the compound CC[C@@H](C1CCC1)n1cc(-c2nc(-c3cnn(C[C@@H](O)CO)c3)cn3nccc23)cn1 (single isomer, unassigned) with its measured IC50.
10 to 100 nM

Note down IC50 recorded for CC[C@@H](CC1CC1)n1cc(-c2nc(-c3cnn(C[C@@H](O)CO)c3)cn3nccc23)cn1
10 to 100 nM

---

This listing pairs compounds with measured IC50.
molecular target: Human Tyk2 kinase domain (Homo sapiens (Human))
Sequence (P29597 886-1187): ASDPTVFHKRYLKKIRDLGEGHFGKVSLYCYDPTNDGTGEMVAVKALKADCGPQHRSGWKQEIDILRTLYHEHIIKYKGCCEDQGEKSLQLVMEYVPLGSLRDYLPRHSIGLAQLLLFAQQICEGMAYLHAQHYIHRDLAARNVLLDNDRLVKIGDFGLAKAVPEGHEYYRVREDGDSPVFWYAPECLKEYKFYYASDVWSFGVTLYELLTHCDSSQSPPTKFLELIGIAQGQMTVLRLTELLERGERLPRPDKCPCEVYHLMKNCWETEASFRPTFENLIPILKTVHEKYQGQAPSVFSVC
Where a name gives a salt, the structure may show the parent alone.

Recorded results for 3 compounds are shown here.
- Compound: "CCC(CC)n1cc(-c2nc(-c3cnn(CCNC4CC4)c3)cn3nccc23)cn1 [Example 134, trifluoroacetate]"
  IC50: "10 to 100 nM"
- Compound: "CCC(CC)n1cc(-c2nc(-c3cnn(CC4(CO)CC4)c3)cn3nccc23)cn1 [Example 192]"
  IC50: "10 to 100 nM"
- Compound: "CC[C@H](C)n1cc(-c2nc(-c3cnn(C[C@H](O)CO)c3)cn3nccc23)cn1 [Example 70, hydrochloride]"
  IC50: "10 to 100 nM"

Supply measured IC50 of CCC(n1cc(-c2nc(-c3cnn(C[C@@H](O)CO)c3)cn3nccc23)cn1)C(F)(F)F (stereo partly shown) [Example 193] in your reply.
100 to 1000 nM

Tell me measured IC50 for CCC[C@@H](C)n1cc(-c2nc(-c3cnn(C[C@H](O)CO)c3)cn3nccc23)cn1 [Example 74] please.
10 to 100 nM

Note down IC50 recorded for CCC(CC)n1cc(-c2nc(-c3cnn(C4CN(C(=O)CN5CC(O)C5)C4)c3)cn3nccc23)cn1 [Example 180]
100 to 1000 nM

Kindly indicate its recorded IC50. Item: CCC(CC)n1cc(-c2nc(-c3cnn(C4CN(C(=O)CNC)C4)c3)cn3nccc23)cn1 [Example 187, bis(2,2,2-trifluoroacetate)]
10 to 100 nM

Specify IC50 for CCC(CC)n1cc(-c2nc(-c3cnn([C@H]4C[C@@H](O)C4)c3)cn3nccc23)cn1 [Example 119] and stop.
< 10 nM

Using the record for CCC(CC)n1cc(-c2nc(-c3cnn(CC(=O)N(C)C)c3)cn3nccc23)cn1 [Example 5] , state its measured IC50.
10 to 100 nM

Identify measured IC50 corresponding to CC[C@H](C1CC1)n1cc(-c2nc(-c3cnn(C(CO)CO)c3)cn3nccc23)cn1 [Example 215]
10 to 100 nM

Give the value of IC50 reported for the following: Cn1cc(-c2cn3nccc3c(-c3cnn(C4CCCCCC4)c3)n2)cn1 [Example 2]
100 to 1000 nM

Look up and state reported IC50 for CC[C@@H](C)n1cc(-c2nc(-c3cnn(C(CO)CO)c3)cn3nccc23)cn1 [Example 85]
100 to 1000 nM

Give reported IC50 value for CCC(CC)n1cc(-c2nc(-c3cnn(CC[C@H](O)CO)c3)cn3nccc23)cn1 [Example 62]
10 to 100 nM

Please report the measured IC50 for CCC(CC)n1cc(-c2nc(-c3cnn(C[C@H](CO)N(C)C)c3)cn3nccc23)cn1 [Example 131]
10 to 100 nM

For CCC(CC)n1cc(-c2nc(-c3cnn(C4CCNCC4)c3)cn3nccc23)cn1 [Example 25, hydrochloride] , write its IC50.
10 to 100 nM

Please look at this compound and report its IC50: CCC(CC)n1cc(-c2nc(-c3cnn(CC4(O)CCN(C(C)=O)CC4)c3)cn3nccc23)cn1 [Example 185]
100 to 1000 nM

---

For reference, pIC50 measured on Human Tyk2 kinase domain (Homo sapiens (Human)):
pIC50: −log10 of the molar value.

// known answers, use as guide
- Molecule: "CCC(CC)n1cc(-c2nc(-c3cnn(C[C@@H](O)[C@@H](C)O)c3)cn3nccc23)cn1 [Example 59]"
  pIC50: "7.00 to 8.00"
- Molecule: "CCC(CC)n1cc(-c2nc(-c3cnn(CCN4CC[C@@H](OC)C4)c3)cn3nccc23)cn1 [Example 136]"
  pIC50: "7.00 to 8.00"
- Molecule: "CCC(CC)n1cc(-c2nc(-c3cnn(CC4(CO)COC4)c3)cn3nccc23)cn1 [Example 16]"
  pIC50: "7.00 to 8.00"
- Molecule: "CCC(CC)n1cc(-c2nc(-c3cnn(C[C@@H](O)COC)c3)cn3nccc23)cn1 [Example 107]"
  pIC50: "7.00 to 8.00"
- Molecule: "CCC(CC)n1cc(-c2nc(-c3cnn(C[C@H](C)CO)c3)cn3nccc23)cn1 [Example 15]"
  pIC50: "7.00 to 8.00"
- Molecule: "CCC(CC)n1cc(-c2nc(-c3cnn([C@@H]4CCNC[C@H]4O)c3)cn3nccc23)cn1 [Example 188]"
  pIC50: "7.00 to 8.00"

// fetch pIC50 for CCC(CC)n1cc(-c2nc(-c3cnn(CC(O)CN)c3)cn3nccc23)cn1 (stereo not shown) [Example 98] ; system: Human Tyk2 kinase domain (Homo sapiens (Human))
7.00 to 8.00

GET pIC50 | system: Human Tyk2 kinase domain (Homo sapiens (Human)) | item: CCC(CC)n1cc(-c2nc(-c3cnn(C(C)(C)CO)c3)cn3nccc23)cn1 [Example 124]
7.00 to 8.00

For Human Tyk2 kinase domain (Homo sapiens (Human)), give the measured pIC50 of the entry CC[C@H](C)n1cc(-c2nc(-c3cnn(C(CO)CO)c3)cn3nccc23)cn1 [Example 84]
7.00 to 8.00

Report measured pIC50 on Human Tyk2 kinase domain (Homo sapiens (Human)); entry: CCC(CC)n1cc(-c2nc(-c3cnn(C[C@H](O)C(C)(C)O)c3)cn3nccc23)cn1 [Example 56]
7.00 to 8.00

Give reported pIC50 for CCC(CC)n1cc(-c2nc(-c3cnn(CCN4CCCC4)c3)cn3nccc23)cn1 [Example 135] (Human Tyk2 kinase domain (Homo sapiens (Human)))
7.00 to 8.00
